- TEST_DESCRIPTION: qHTS for Inhibitors of the Aldehyde Dehydrogenase Family (ALDH1A2, ALDH1A3, ALDH2, ALDH3A1) (AID 2061307); note: nearly all actives have a fitted effect of over 50% in size
- SETUP_CONDITIONS: ALDH inhibition qHTS; series mostly up to 50.3 µM
Records with an inconclusive call do not appear. Active and inactive are the calls of the source. Calls come from the whole dose curve; as a rule, active = well fitted inhibition curve with a large enough effect; inconclusive = small, poorly fitted or top-dose-only effect; inactive = no such curve, though single readings can be large or run the other way.
Outcomes: T (active), F (inactive)

• O=C([C@@H](NS(=O)(=O)c1ccc2[nH]c(=O)ccc2c1)c1ccccc1)N(Cc1ccco1)Cc1cccs1 = F
• CCOC(=O)Cn1c(=O)oc2cc(S(=O)(=O)N3CCN(c4ccc(Cl)cc4)CC3)ccc21 = F
• COc1ccc(C2Oc3ccccc3C(=O)N2Cc2ccccc2)cc1COc1ccc(NC(C)=O)cc1 (stereo not given) = T
• COc1cccc(N2CCN(c3ncnc4c3c(-c3ccccc3)cn4-c3cccc(C(F)(F)F)c3)CC2)c1 = F
• COC(=O)c1ccc(O)c2ncc(-c3ccc(C(=O)N4CCNCC4)cc3)cc12 = F
• O=C(NCc1ccccc1)C1CCN(c2nc(-c3ccc(Br)cc3)cs2)CC1 = T
• CCn1nc(C)c(CNc2ccc(S(N)(=O)=O)cc2C#N)c1C = F
• COc1ccc(S(=O)(=O)N2CCN(S(=O)(=O)c3ccc4c(c3)OCCO4)CC2)cc1 = F
• CCOC(=O)c1c(C)n(-c2ccc(OC)cc2)c2ccc(OC(=O)COc3ccccc3)cc12 = F
• Cc1cc(Cl)ccc1-n1c(CCC(=O)O)ccc1-c1cccs1 = T
• COc1cccc(-c2cnc(N3CCC(C(N)=O)CC3)s2)c1 = F
• NS(=O)(=O)c1ccc(Cc2cn(-c3nc(C(=O)O)cs3)c3ccccc23)cc1 = F
• CCc1ccc(CNC(=O)c2cnc3c(C)cccn3c2=O)cc1 = F
• Cn1ccc(=Nc2ccc(NC(=O)c3ccc(N=c4ccn(C)c5ccc([N+](=O)[O-])cc45)cc3)cc2)cc1 = T
• c1ccc(CCN(Cc2ccccc2)C2CCN(c3ccccc3)CC2)cc1 = F
• COc1cc(/C=C2\C(=O)Nc3ccccc32)ccc1O = F
• Cc1c2c(=O)n(-c3ccccc3)[nH]c2cc(=O)n1CCCN1CCOCC1 = F
• CN(C)c1ccc(C(=O)NCC(=O)OC(C(=O)Nc2cc(C(F)(F)F)ccc2Cl)c2ccccc2)cc1 (stereo not given) = F
• COc1ccc(NC(=O)c2cc(C3CC3)nc3c2c(C)nn3-c2ccccc2)cc1OC = F
• Oc1ccccc1C1Nc2cccc3cccc(c23)N1 = F

* * *

- TEST_DESCRIPTION: BET inhibitor-based combinations targeting novel dependencies in MECOM-rearranged (r) AML: OCI-AML3 cell line (AID 2202232); note: nearly all actives have a fitted effect of over 35% in size
- SETUP_CONDITIONS: CellTiter-Glo luminescence, 48 h; OCI-AML3 viability; series mostly up to 46 µM
Inconclusive results are not listed. Active and inactive are the calls of the source. Calls follow the shape of the dose curve; as a rule, active = well fitted inhibition curve with a large enough effect; inconclusive = small, poorly fitted or top-dose-only effect; inactive = no such curve, though single readings can be large or run the other way.
Possible outcomes: true (1) (active), false (0) (inactive)

• C[C@@H]1CC(=O)Nc2cccc(-c3ccc4c(c3)c(-c3cnn(C)c3)nn4C)c2N1 = true (1)
• C=CC(=O)Nc1cccc(Nc2nc(Nc3ccc(N4CCN(C(C)=O)CC4)cc3OC)ncc2C(F)(F)F)c1 = true (1)
• Cc1ccc(-n2nc(C(C)(C)C)cc2NC(=O)NCc2cc(F)ccc2Oc2ccc3c(cnn3CCO)c2)cc1 = true (1)
• C=CC(=O)Nc1ccc2ncnc(Nc3ccc(OCc4cccc(F)c4)c(Cl)c3)c2c1 = true (1)
• COc1cc(NS(C)(=O)=O)ccc1Nc1c2ccccc2nc2ccccc12 = true (1)
• CCC[C@@H]1C[C@@H](C(=O)N[C@@H]([C@H]2O[C@H](SC)[C@H](O)[C@@H](O)[C@H]2O)[C@H](C)Cl)N(C)C1 = false (0)
• CNC(=O)[C@H](Cc1c[nH]c2ccccc12)NC(=O)[C@@H](CC(=O)NO)CC(C)C = false (0)
• Cn1nccc1Nc1nccc(-c2cc3c(s2)C(C)(C)N(CCN2CCOCC2)C3=O)n1 = true (1)
• CC1(C(=O)O)CCC2(C)CCC3(C)C(=CC(=O)C4C5(C)CCC(OC6OC(C(=O)O)C(O)C(O)C6OC6OC(C(=O)O)C(O)C(O)C6O)C(C)(C)C5CCC43C)C2C1 (centres undefined) = false (0)
• Cc1ccc(C(=O)OCc2ccc([C@@H](CN)C(=O)Nc3ccc4cnccc4c3)cc2)c(C)c1 = true (1)
• CN(C)N=Nc1nc[nH]c1C(N)=O = false (0)
• O=C1Cc2cc(C(=O)NC3C[C@H]4CC[C@@H](C3)N4S(=O)(=O)CC3CCN(CCCC(F)(F)F)CC3)c(Cl)cc2N1 (some centres undefined) = false (0)
• O=C(O)CNC(=O)c1nc(Cl)c2ccccc2c1O = false (0)
• CNCc1ccc(-c2cc(-c3nc(-c4ccc(S(=O)(=O)C(C)C)cc4)cnc3N)on2)cc1 = false (0)
• NC(=O)c1nc(F)c[nH]c1=O = false (0)
• CO[C@H]1/C=C/O[C@@]2(C)Oc3c(C)c(O)c4c(O)c(c5c(nc6cc(C)ccn65)c4c3C2=O)NC(=O)/C(C)=C\C=C\[C@H](C)[C@H](O)[C@@H](C)[C@@H](O)[C@@H](C)[C@H](OC(C)=O)[C@@H]1C = false (0)
• CC(=O)N[C@H]1[C@H](O[C@@H]2c3ccc(c(Cl)c3)Oc3cc4cc(c3O[C@@H]3O[C@H](CO)[C@@H](O)[C@H](O)[C@H]3NC(=O)CCCCCCCC(C)C)Oc3ccc(cc3Cl)C[C@H]3NC(=O)[C@H](N)c5ccc(O)c(c5)Oc5cc(O)cc(c5)[C@H](NC3=O)C(=O)N[C@H]4C(=O)N[C@H]3C(=O)N[C@@H]2C(=O)N[C@@H](C(=O)O)c2cc(O)cc(O[C@H]4O[C@H](CO)[C@@H](O)[C@H](O)[C@@H]4O)c2-c2cc3ccc2O)O[C@H](CO)[C@@H](O)[C@@H]1O = false (0)
• CCOC(=O)C1=C(C)NC(=S)NC1c1cccc(O)c1 (centres undefined) = true (1)
• O=c1c(-c2ccc(O)cc2)coc2c([C@@H]3O[C@H](CO)[C@@H](O)[C@H](O)[C@H]3O)c(O)ccc12 = false (0)
• Cc1oc(=O)oc1CN1CCN(c2cc3c(cc2F)c(=O)c(C(=O)O)c2n3C(C)S2)CC1 (centres undefined) = false (0)
• CC[C@@H]1[C@H](F)C(=O)N[C@@H]1COc1nccc2cc(C(N)=O)c(OC)cc12 = true (1)
• C[C@H]1[C@H](C)CC[C@]2(C(=O)O)CC[C@]3(C)C(=CC[C@@H]4[C@@]5(C)CC[C@H](O)C(C)(C)[C@@H]5CC[C@]43C)[C@H]12 = false (0)
• C=CC(=O)N1CCC(Oc2cc3c(Nc4ccc(Cl)c(Cl)c4F)ncnc3cc2OC)CC1 = true (1)
• CC(=O)O[C@@]12CO[C@@H]1C[C@H](O)[C@@]1(C)C(=O)[C@H](O)C3=C(C)[C@@H](OC(=O)[C@H](O)[C@@H](NC(=O)OC(C)(C)C)c4ccccc4)C[C@@](O)([C@@H](OC(=O)c4ccccc4)[C@H]21)C3(C)C = true (1)
• CCC1=C[C@@H]2CN(C1)Cc1c([nH]c3ccccc13)[C@@](C(=O)OC)(c1cc3c(cc1OC)N(C)[C@H]1[C@@](O)(C(=O)OC)[C@H](OC(C)=O)[C@]4(CC)C=CCN5CC[C@]31[C@@H]54)C2 = true (1)
• CCCc1cc(C)[nH]c(=O)c1CNC(=O)c1cc(-c2ccc(N3CCN(C(C)C)CC3)nc2)cc2c1cnn2C(C)C = true (1)
• Cc1cc(CN2CCN(c3c(Br)cnc4nc(-c5ccc(N6CCN(C)CC6)cc5)[nH]c34)CC2)no1 = true (1)
• CCNC(=O)Nc1ccc(-c2nc3c(c(N4CCOC[C@@H]4C)n2)CCN(C2COC2)C3)cc1 = true (1)
• COc1ccc(-c2oc3c(CC=C(C)C)c(OC4O[C@H](CO)[C@@H](O)[C@H](O)[C@H]4O)cc(O)c3c(=O)c2OC2O[C@@H](C)[C@H](O)[C@@H](O)[C@H]2O)cc1 (some centres undefined) = false (0)

* * *

- TESTED_ON: Retinal dehydrogenase 2 (Homo sapiens)
- TEST_DESCRIPTION: qHTS for Inhibitors of the Aldehyde Dehydrogenase Family (ALDH1A2) Confirmation screens (AID 2061314); note: nearly all actives have a fitted effect of over 65% in size
- SETUP_CONDITIONS: ALDH1A2 enzyme inhibition qHTS confirmation; series mostly up to 45.9 µM
Inconclusive results are not listed. Activity calls are given as the source filed them. The call rests on the fitted dose curve; in most records, active means well fitted inhibition curve with a large enough effect; inconclusive means small, poorly fitted or top-dose-only effect; inactive means no such curve, though single readings can be large or run the other way.
Classes used: active, inactive

• Cc1ccc(OCCn2c(CCNC(=O)c3ccccc3N)nc3ccccc32)cc1 = active
• COc1ccc(C2Nc3ccc(Cl)cc3C(=O)N2Cc2ccccc2)cc1COc1ccc(NC(C)=O)cc1 (stereo not given) = active
• Cc1ccc(S(=O)(=O)Nc2cnccc2C(=O)Nc2ccc(N3CCOCC3)cc2)cc1 = active
• CN(Cc1ccccc1C(F)(F)F)C(=O)c1ccc(Cl)nc1 = inactive
• O=C1Cc2cc(S(=O)(=O)N3CCNCC3)ccc2N1 = active
